The reported numbers originate from paper PMC4360375.

- Target Entity: rGAT1 (Rattus norvegicus)
- Construct: Y prefix of 'YrGAT-1' (own knowledge: yellow fluorescent protein, YFP, fused to rGAT1 in this group's constructs); expressed in transfected cells; host or cells: HEK293
- Method Description: [3H]-GABA uptake inhibition assay in HEK293 cells stably expressing rGAT1
- Type: cell-based
- Experimental Setup: HEK293, 100 μM of the respective compound; n = 3; relative to saline
Assay Metric: remaining activity at 100 µM (%)

Solved cases (2 shown):
N[C@H](Cc1cc(I)c(Oc2cc(I)c(O)c(I)c2)c(I)c1)C(=O)O [27c, dextrothyroxine] :: 127
CCC(CC)OC1C=C(C(=O)O)CC(N)C1NC(C)=O (stereo not drawn) [compound 24] :: 105

P: CC(C(=O)Nc1ccc(Br)cc1Br)N1CCCC(CC(=O)O)C1 (stereo not drawn) [compound 13]
Q: N[C@@H](Cc1cc(I)c(Oc2cc(I)c(O)c(I)c2)c(I)c1)C(=O)O [27b, levothyroxine]
**Query** Hi, I'm comparing P with Q and wondering which one has the bigger number for remaining activity at 100 µM. Any idea? Use the label to indicate which entry you chose.
**Result** P
(P: 93.2%, Q: 54.2%)

---

- Target Entity: rGAT1 (Rattus norvegicus, UniProt P23978)
- Construct: Y prefix of 'YrGAT-1' (own knowledge: yellow fluorescent protein, YFP, fused to rGAT1 in this group's constructs); expressed in transfected cells; host or cells: HEK293
- Method Description: [3H]-GABA uptake inhibition assay in HEK293 cells stably expressing rGAT1
- Type: cell-based
- Experimental Setup: HEK293, 100 μM of the respective compound; n = 3; relative to saline
Assay Metric: remaining activity at 100 µM (%)

O=C(O)CN1CCC(CCc2ccccc2C(F)(F)F)CC1 :: 99
O=C(CN1CCC[C@H]1C(=O)O)NC(c1ccc(F)cc1)c1cccs1 (some centres unmarked) :: 94.7
Cc1nn(Cc2ccccc2Cl)c(C)c1CN(C)C(C)C(=O)O (centres unmarked) :: 93.9
NC(CSCc1cccc2ccccc12)C(=O)O (centres unmarked) :: 108
O=C(O)CN1CCCC1Cc1ccccc1Cl (centres unmarked) :: 95.1

---

- Target Entity: rGAT1 (Rattus norvegicus, UniProt P23978)
- Construct: Y prefix of 'YrGAT-1' (own knowledge: yellow fluorescent protein, YFP, fused to rGAT1 in this group's constructs); expressed in transfected cells; host or cells: HEK293
- Method Description: [3H]-GABA uptake inhibition assay in HEK293 cells stably expressing rGAT1
- Type: cell-based
- Experimental Setup: HEK293, 100 μM of the respective compound; n = 3; relative to saline
Assay Metric: remaining activity at 100 µM (%)

Fc1cc(Br)cc(CN2CCCC(c3nnn[nH]3)C2)c1 (centres unmarked) :: 91
O=C(CCN1CCCC1C(=O)O)Nc1ccccc1Oc1ccccc1 (centres unmarked) :: 79.3
CC(C(=O)O)N1CCCN(C(=O)c2ccccc2C(F)(F)F)CC1 (centres unmarked) :: 104
CCN(CCC(=O)O)Cc1nc2c(C)cccc2c(=O)[nH]1 :: 105
Cc1cc(S(=O)(=O)N2CCN(CCC(=O)O)CC2)ccc1Br :: 104
